Cited source for all entries: the supplement of paper PMC9732359

assay: protein stability index of a GFP-peptide fusion (yeast GPS) (PSI 1-4); higher = more stable; sorted into four equal gates, so the index is relative within each strain; conditions: ubr1∆
Would you kindly list protein stability index for each of these sequences?
Answer as a number with no unit attached.

// field: protein stability index; key: SSVVSEPKKPSFTFASS [YOR098C/NUP1] ; value = 2.92

Record NNNINENELFNDRKQTT [SSN2] , field protein stability index: 2.78

protein stability index reported for this sequence IDTSKNLENMSIQDTST [YCG1] : 2.68

response.value for LKPSMSVALHRHSNALV [RPT3] (field: protein stability index) = 2.53

GET /value?item= TATNSKGEQIAIFPYQD [ECM29] &field=protein stability index returns 3.15

// sample IDAMKAVAEAYNNRSLL [RPN6] , its protein stability index was 1.79

response.value for RTKFVRSLVREIAGLSP [RPL36A] (field: protein stability index) = 2.92

sequence RFYQLGVDLKLKYSKRR [CSN12] , protein stability index observed: 1.15

// HAYNITFNNQDKGLLPY [RPO31] : protein stability index value = 2.91

Value of protein stability index reported for the sequence CLTGTVAARMFHILLKL [ECM29] is 2.44

// recorded protein stability index for IQELRKLLKSLLLNYLE [MED7] : 1.04

NSVRNSLLLAHFFSKSC [NUT1] has a reported protein stability index of 1.18

For this sequence ( CFSQENIEEMARVILYL [SIN4] ), measured protein stability index is 2.76

Given item KYSKLVDNVTLESYKTQ [SRP72] , the value recorded as its protein stability index is 3.22

// protein stability index value for IDRNLKCQTCQEGMNEC [RPO21] : 2.37

The value of protein stability index measured for the sequence QAIITERLVEFSNVNEL [YIL149C/MLP2] turned out to be 3.31

According to the records, this sequence ITKLNKEIRAFDKLLNI [SRB4] displays protein stability index of 3.15

// field: protein stability index; key: PKNSKTPQSKGFVRNSF [RPO31] ; value = 3.18

Data point: IDEIDAIGTKRYDSNSG [RPT2] ; protein stability index = 2.92

Measured protein stability index of FNATVDETKGFDDNDSG [MED2] : 3.29

# sequence IHGELKTYKEGINKNEE [SMC1] ; its protein stability index = 3.01

Record summary for KAKVEEMNNIIAASRRH [RPL36A] : reported protein stability index = 3.13

Recorded protein stability index (sequence SLSDNDLAVCATIIGII [ECM29] ): 2.75

The sequence listed as PRYTYHTIFSDVCKTRF [YML031W/NDC1] shows protein stability index equal to 2.82

// protein stability index lookup, sequence = LGPLFKKIVDDTIMENP [IRR1] , result: 2.82

Consider DKLICSIDPPGCVDIDD [DIS3] . Its measured protein stability index is 3.14

Per the records, this sequence ( LEKVVPLINVVVDILSA [BRR2] ) has protein stability index equal to 1.26

RYFFYLSKINAIQLDYS [RPN3] yielded protein stability index of 1.33

Consider YDNGQVFPSSILDITDE [RPP0] . Its measured protein stability index is 1.32

Kindly note the recorded protein stability index for NSINKTTVPFKESDDPS [POP1] , which is 2.36

The sequence identified as NTGDGSISTYKDILNLA [ECM29] registered its protein stability index at 3.09

Lab note: DFVRNELNDIDTKIDQV [SMC3] gave protein stability index of 3.29

protein stability index in this record for GGGHVSQVYAIRQAIAK [RPS16A] : 2.62

Entry under test: KDTPFTIYDGEAVAKYI [PRE5] . Its protein stability index was 3.12

# protein stability index (sequence: KTSLMDLLVIDSHKRIP [SNU114] ) is 2.41

Field protein stability index (entry YKGMASNDERIVKRLYE [BRR2] ) reads 3.51

For this sequence ( SSLASQDVDFYKNLDRG [RRP6] ), measured protein stability index is 1.64

// field: protein stability index; key: RFKYAPGTIVLYAERVQ [RPS3] ; value = 1.84

The recorded protein stability index for entry FTNELKAELDRYKRENQ [SEM1] equals 3.41

// protein stability index lookup, sequence = NNNNAPIIIYGTENTER [YOR098C/NUP1] , result: 2.74

Looking up DKKNKRLKFGHRLIATH [SNF2] , I see its protein stability index listed as 2

Record SIAAERYDYSDEVGRRS [YCG1] . Reported protein stability index: 3.04

The recorded protein stability index for entry DTVSWFKQKYDADVLDK [RPL11A] equals 1.97

// protein stability index lookup, sequence = LLTVTPGPRLLYENIAS [RPN10] , result: 1.82

The sequence identified as GSTTIEKKNDENSTSNS [YLR335W/NUP2] registered its protein stability index at 3.17

Quick note, protein stability index for TSAASGDAAPAEEAAAE [RPP0] landed at 3.34

protein stability index reported for this sequence NEAGRKLSDIFLSKPSK [SNF2] : 3.04

The sequence listed as AMSTVTLGVVGKSEKLS [SKI6] has a reported protein stability index of 2.93

Form field protein stability index, entry AGLGKTNELWARLAILK [YGR119C/NUP57] : 3.56

---

assay: protein stability index of a GFP-peptide fusion (yeast GPS) (PSI 1-4); higher = more stable; sorted into four equal gates, so the index is relative within each strain; details: doa10∆
experimental-endpoint: protein stability index
Respond numerically, and do not add a unit to the figure.

For this sequence ( YEGMKLGNHAITIDSVV [YMR129W/POM152] ), measured protein stability index is 2.27

protein stability index in this record for IADKTTYDKETITDLIE [SIR4] : 3.3

Entry RFAFSVIWELDDSANIV [DIS3] — recorded protein stability index = 2.63

Note to self: protein stability index recorded for KYHNDLIEKEIQPKITE [SMC1] was 3.11

KGEEAKLDSKKTVPFQV [SSN3] yielded protein stability index of 3.27

protein stability index reported for this sequence YESQTFSSKNEWRKSAI [PRP8] : 3.23

Short answer for YYVGQVMRNNESTETGY [DIS3] : protein stability index was 3.21

The reported protein stability index of the sequence VASQSPHATATEKEPVP [SNF6] was 3.23

// protein stability index value for LIERYYPKLTLDFQTNK [RPS17A] : 3.12

Looking up MFTATMTPVIEKIAAGY [PRP28] , I found its protein stability index recorded as 2.2

response.value for QFKTTIKDTANDNDITV [UBP6] (field: protein stability index) = 2.45

# protein stability index (sequence: GLVKQHLDSFNYFVDTD [RET1] ) is 3.46

The reported protein stability index of the sequence QPSDVKPTSHKQLQQPK [SIR4] was 2.98

Short answer for IYYDSYIHLAYSRSVDK [SSN2] : protein stability index was 2.71

Entry under test: STFGFNNSAPNNTNNAN [YJL041W/NSP1] . Its protein stability index was 3.13

The reported protein stability index of the sequence TELLNIYDSEDPQQVFD [RPN3] was 2.88

get_value(item= TPESVKPANASHAIRLG [RGR1] , readout=protein stability index) returns 2.63

The sequence identified as KKLEITSDGALSVMCGC [RPR2] registered its protein stability index at 2.63

// sample IRENKVTYSRVSKKVDV [BRN1] , its protein stability index was 2.76

Summary for this sequence, DVSLLLQRDLFIRLPHW [RGR1] : protein stability index is 2.5

Sample LVHTQIRKTPLAQKKAH [RPL3] ; protein stability index observed: 1.37

For record VRIDKALELDDTVVSRV [ECM29] the listed protein stability index is 2.92

sequence PLLARKQFVVDVLHPNR [RPS24A] , protein stability index observed: 1.58

GET /value?item= DLKIEKLVLNISVGESG [RPL11A] &field=protein stability index returns 2.81

Query ILSINAIDYEPEYEKAM [SMC1] yields protein stability index of 3.29

protein stability index reported for this sequence VHSSSPSTSSNMDVGNP [GAL11] : 2.89

Consider KGEMKGSAITGPVGKEC [RPL23A] . Its measured protein stability index is 3.19

Recorded result, DKFSPEDGLGPLMAKSV [ARP7] , protein stability index: 3.02

Recorded result, RLFNVVVQDSQTATQLL [SMC2] , protein stability index: 2.94

Noted for PLPTPFKVDDNVDFPSA [RPN2] : its protein stability index reads 2.94

Value of measured protein stability index for the entry LPNQFPLKIHRTPYLTS [SWI1] : 2.07

The sequence listed as AGVLNGTLEYGTCFGGS [RET1] has a reported protein stability index of 2.97

Record summary for LNSYWVNQDSTYKYFEV [RPL15A] : reported protein stability index = 3.23

Record PVLNLDKLWTLIPEDKR [RPL28] . Reported protein stability index: 1.54

protein stability index recorded for this sequence, LSISVPSDVNIDVMKSQ [SNU114] , is 2.86

For reference, reported protein stability index for KYPIFTGESWVKLTYNS [YDL088C/ASM4] stands at 1.82

Notebook: GASGEERLMSRPFGVAL [PUP2] , protein stability index read as 3.36

The recorded protein stability index for DIQLKNLFPLKPKMLPI [SRP68] is 2.78

protein stability index reported for this sequence KDTPFTIYDGEAVAKYI [PRE5] : 2.69

Measured protein stability index of MRAKWRKKRTRRLKRKR [RPL41A] : 3.47

Per the records, this sequence ( TDKPFSSTQDVILRKIS [CSI1] ) has protein stability index equal to 2.87

Form field protein stability index, entry QLNSRAVAVVVDPIQSV [RPN11] : 1.27

NQQAQARQQVAQQLRNQ [GAL11] has a reported protein stability index of 2.49

Summary for this sequence, VGCKNLERLTLVFCKHI [GRR1] : protein stability index is 1.52

The sequence listed as ATNRVDVLDPALLRSGR [RPT5] has a reported protein stability index of 3.13

The value of protein stability index measured for the sequence VQGKNLLTNFHGMDFTT [RPS1A] turned out to be 3.42

Short answer for NDSETHTEDESTKELKF [BRN1] : protein stability index was 3.2

// protein stability index value for TPRGNHWMGSSVSGSPR [YMR129W/POM152] : 3.25

For reference, reported protein stability index for KNDTKILVLALEDLKDV [PRP8] stands at 1.6

Data point: KNDTHYLLPDDFHFSTD [BRN1] ; protein stability index = 2.81

// field: protein stability index; key: NRVPDGFQDRSLPHFPK [RPO31] ; value = 3.29

Entry TAILQRQLQYETLGDIL [ECM29] — recorded protein stability index = 2.62

Form: sequence = YPDLKAFHNNLKFLYLL [MED1] ; protein stability index = 2.06

For reference, reported protein stability index for HLIKCFFKITLQRASSK [ITC1] stands at 1.38

Summary for this sequence, ASLGIGLAAMGSANIEV [RPN2] : protein stability index is 1.65

protein stability index in this record for PQKYVLHPQLHEVQYQE [SIN4] : 1.49

Record summary for EQKNTAKEELNGLKDQL [YIL149C/MLP2] : reported protein stability index = 3.19
